From: patent US4145554A

- Tested on: Streptococcus sp. 80
- Assay Protocol: in vitro tube dilution test (MIC)
- Type: cell-based
- Conditions Used: Streptococcus, SP.80

{"columns": ["Compound", "Relation Qualifier", "MIC, µg/mL"],
 "data": [
  ["NC(=O)c1cn(-c2ccc([N+](=O)[O-])cc2)nc1[N+](=O)[O-]", ">", 50],
  ["N#Cc1cn(-c2ccc([N+](=O)[O-])cc2)nc1[N+](=O)[O-]", "=", 50],
  ["Cn1cc(C(=O)NN=Cc2ccc([N+](=O)[O-])o2)c([N+](=O)[O-])n1", "=", 50],
  ["NC(=O)c1cn(-c2ncc([N+](=O)[O-])s2)nc1[N+](=O)[O-]", "=", 50],
  ["N#Cc1cn(-c2ncc([N+](=O)[O-])s2)nc1[N+](=O)[O-]", "=", 50],
  ["O=C(NN=Cc1ccc([N+](=O)[O-])o1)c1cn(CCO)nc1[N+](=O)[O-]", "=", 25],
  ["NC(=O)c1cn(C2C=CC(n3cc(C(N)=O)c([N+](=O)[O-])n3)C=C2)nc1[N+](=O)[O-] (stereo not shown)", ">", 50]
]}

----------
Overview of reported MIC across a group of compounds:
- System: Pseudomonas sp.
- Assay Protocol: in vitro tube dilution test (MIC)
- Assay type: cell-based

{"columns": ["Compound", "MIC"],
 "data": [
  ["CC(=O)OCCn1cc(C(N)=O)c([N+](=O)[O-])n1", "25 µg/mL"],
  ["CNC(=O)c1cn(CCO)nc1[N+](=O)[O-]", "25 µg/mL"],
  ["NC(=O)c1cn(CCO)nc1[N+](=O)[O-]", "12.5 µg/mL"],
  ["CCOCCn1cc(C(N)=O)c([N+](=O)[O-])n1", "50 µg/mL"],
  ["C=CCn1cc(C(N)=O)c([N+](=O)[O-])n1 [Compound 16, 1-allyl-3-nitro-4-pyrazolecarboxamide]", "12.5 µg/mL"]
]}

----------
- System: avian E. coli
- Assay Protocol: Colibacillosis in chickens, medicated feed
- Format: in vivo
- Conditions Used: 200 gm./ton; further test, about 5 weeks of age

{"columns": ["Compound", "E. coli Lesions"],
 "data": [
  ["NC(=O)c1cn(CCO)nc1[N+](=O)[O-]", "31/40"],
  ["C=CCn1cc(C(N)=O)c([N+](=O)[O-])n1 [Compound 16, 1-allyl-3-nitro-4-pyrazolecarboxamide]", "31/40"],
  ["C=Cn1cc(C(N)=O)c([N+](=O)[O-])n1 [Compound 81, 3-nitro-1-vinyl-4-pyrazolecarboxamide]", "20/40"],
  ["CC(=O)OCCn1cc(C(N)=O)c([N+](=O)[O-])n1", "31/40"]
]}

----------
Entries and their measured log10 of MIC follow.
- System: Vibrio coli 3811
- Assay Protocol: in vitro tube dilution test (MIC)
- Assay type: cell-based
- Conditions Used: Campylobacter coli; Vibrio coli 3811, tube dilution; read-out: MIC
Observable: log10 of MIC (log10 of the value in µg/mL)

{"columns": ["Molecule", "Target Under Test", "log10 of MIC"],
 "data": [
  ["N#Cc1cn(CCBr)nc1[N+](=O)[O-] [Compound 91]", "Vibrio coli 3811", 1.10],
  ["CNC(=O)c1cn(CCO)nc1[N+](=O)[O-] [Compound 58]", "Vibrio coli 3811", 1.40],
  ["NC(=O)c1cn(CCCO)nc1[N+](=O)[O-] [Compound 62]", "Vibrio coli 3811", 1.10],
  ["C=Cn1cc(C(N)=O)c([N+](=O)[O-])n1 [Compound 81, 3-nitro-1-vinyl-4-pyrazolecarboxamide]", "Vibrio coli 3811", 1.40],
  ["N#CCCn1cc(C#N)c([N+](=O)[O-])n1 [Compound 73, 4-cyano-3-nitro-1-pyrazolepropionitrile]", "Vibrio coli 3811", 1.40],
  ["CCS(=O)(=O)CCn1cc(C#N)c([N+](=O)[O-])n1 [Compound 86]", "Vibrio coli 3811", 1.40],
  ["N#Cc1cn(CCCl)nc1[N+](=O)[O-] [Compound 33]", "Vibrio coli 3811", 1.10],
  ["N#Cc1cn(Cc2ccccc2)nc1[N+](=O)[O-] [Compound 70, 1-benzyl-3-nitro-4-pyrazolecarbonitrile]", "Vibrio coli 3811", 1.10],
  ["CSCCn1cc(C(N)=O)c([N+](=O)[O-])n1 [Compound 97]", "Vibrio coli 3811", 1.10],
  ["COCCn1cc(C(N)=O)c([N+](=O)[O-])n1 [Compound 65]", "Vibrio coli 3811", 1.70],
  ["Cn1cc(C(N)=O)c([N+](=O)[O-])n1 [Compound 3, 1-methyl-3-nitro-4-pyrazolecarboxamide]", "Vibrio coli 3811", 0.80],
  ["C#CCn1cc(C#N)c([N+](=O)[O-])n1 [Compound 4]", "Vibrio coli 3811", 0.80],
  ["NC(=O)c1cn(CCN2C(=O)c3ccccc3C2=O)nc1[N+](=O)[O-] [Compound 10]", "Vibrio coli 3811", 1.70],
  ["NC(=O)c1cn(CCBr)nc1[N+](=O)[O-] [Compound 96]", "Vibrio coli 3811", 1.40],
  ["Cn1cc(-c2nnc(N)s2)c([N+](=O)[O-])n1 [Compound 102]", "Vibrio coli 3811", 1.10],
  ["CCn1cc(C#N)c([N+](=O)[O-])n1 [Compound 1, 1-ethyl-3-nitro-4-pyrazolecarbonitrile]", "Vibrio coli 3811", 1.10],
  ["CCCCCCCCCn1cc(C(N)=O)c([N+](=O)[O-])n1 [Compound 48, 3-nitro-1-nonyl-4-pyrazolecarboxamide]", "Vibrio coli 3811", 1.70],
  ["NC(=O)c1cn(CCCl)nc1[N+](=O)[O-] [Compound 52]", "Vibrio coli 3811", 1.40],
  ["NC(=O)c1cn(CCCCl)nc1[N+](=O)[O-] [Compound 63]", "Vibrio coli 3811", 1.40],
  ["CCOC(Cn1cc(C(N)=O)c([N+](=O)[O-])n1)OCC [Compound 82]", "Vibrio coli 3811", 1.70],
  ["NC(=O)c1cn(Cc2ccccc2)nc1[N+](=O)[O-] [Compound 18, 1-benzyl-3-nitro-4-pyrazolecarboxamide]", "Vibrio coli 3811", 1.70],
  ["Cn1cc(C#N)c([N+](=O)[O-])n1 [Compound 30, 1-methyl-3-nitro-4-pyrazolecarbonitrile]", "Vibrio coli 3811", 2.00],
  ["N#Cc1cn(CCCCl)nc1[N+](=O)[O-] [Compound 83]", "Vibrio coli 3811", 1.40],
  ["NC(=O)c1cn(CC2CC2)nc1[N+](=O)[O-] [Compound 90]", "Vibrio coli 3811", 1.70],
  ["N#Cc1cn(CC2CO2)nc1[N+](=O)[O-] (centres unmarked) [Compound 31]", "Vibrio coli 3811", 1.10],
  ["CC(=O)OCCn1cc(C(N)=O)c([N+](=O)[O-])n1 [Compound 80]", "Vibrio coli 3811", 1.10],
  ["CCS(=O)(=O)CCn1cc(C(N)=O)c([N+](=O)[O-])n1 [Compound 35]", "Vibrio coli 3811", 1.70],
  ["CCOCCn1cc(C(N)=O)c([N+](=O)[O-])n1 [Compound 34]", "Vibrio coli 3811", 1.70]
]}
